- measured target: human CD33 S186A (human, UniProt P20138 18-364)
- Sequence (P20138 18-364 S186A limits assumed): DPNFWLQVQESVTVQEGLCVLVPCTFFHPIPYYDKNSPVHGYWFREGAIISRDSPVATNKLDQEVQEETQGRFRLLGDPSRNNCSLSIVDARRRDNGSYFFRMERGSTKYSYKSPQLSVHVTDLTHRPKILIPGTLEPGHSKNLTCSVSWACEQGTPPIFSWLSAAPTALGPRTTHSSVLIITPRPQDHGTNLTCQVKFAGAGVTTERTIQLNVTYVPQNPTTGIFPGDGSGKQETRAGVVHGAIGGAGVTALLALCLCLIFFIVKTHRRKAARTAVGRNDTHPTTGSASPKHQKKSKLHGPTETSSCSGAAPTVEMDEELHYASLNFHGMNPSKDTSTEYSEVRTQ
- assay method text: alanine scan, flow cytometry, HEK293-T;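 also: antibody binding to each alanine-substituted CD33 mutant expressed transiently in HEK293-T, read as fluorescence minus background, mean of duplicates, relative to wild-type CD33 set as 100%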
The reader will find reported Mean % WT Binding values listed item by item below.
Reply with just the number (in %).

Would you please look over these solved cases?
Determine its reported Mean % WT Binding: Refmab #2 (antibody, V domains shown, In the alanine scan antibodies were used as IgG or Fab) VH: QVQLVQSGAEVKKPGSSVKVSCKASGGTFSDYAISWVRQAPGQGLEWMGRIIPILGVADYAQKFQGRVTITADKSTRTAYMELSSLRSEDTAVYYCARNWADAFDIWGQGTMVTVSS VL: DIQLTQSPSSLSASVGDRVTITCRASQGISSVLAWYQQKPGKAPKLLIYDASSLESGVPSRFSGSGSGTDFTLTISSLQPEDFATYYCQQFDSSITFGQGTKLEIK 120

Output measured Mean % WT Binding for this item: Refmab #4 (antibody, V domains shown, In the alanine scan antibodies were used as IgG or Fab) VH: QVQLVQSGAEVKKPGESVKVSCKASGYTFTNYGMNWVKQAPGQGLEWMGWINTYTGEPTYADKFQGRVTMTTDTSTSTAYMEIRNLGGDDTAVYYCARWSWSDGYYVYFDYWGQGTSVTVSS VL: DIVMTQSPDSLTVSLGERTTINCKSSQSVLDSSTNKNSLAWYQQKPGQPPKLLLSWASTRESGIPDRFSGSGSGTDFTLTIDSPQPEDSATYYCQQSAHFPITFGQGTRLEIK 121

Look up and report measured Mean % WT Binding for this entry: Refmab #1 (antibody, V domains shown, In the alanine scan antibodies were used as IgG or Fab; also called hP67.6) VH: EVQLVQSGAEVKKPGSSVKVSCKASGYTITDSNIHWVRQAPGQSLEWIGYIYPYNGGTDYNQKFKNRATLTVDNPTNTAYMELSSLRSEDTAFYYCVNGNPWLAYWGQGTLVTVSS VL: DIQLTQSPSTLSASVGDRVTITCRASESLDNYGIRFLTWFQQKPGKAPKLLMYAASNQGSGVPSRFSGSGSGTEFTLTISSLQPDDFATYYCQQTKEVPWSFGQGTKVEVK 92.5

Kindly consider the entry below.
Supply measured Mean % WT Binding of Refmab #3 (antibody, V domains shown, In the alanine scan antibodies were used as IgG or Fab) VH: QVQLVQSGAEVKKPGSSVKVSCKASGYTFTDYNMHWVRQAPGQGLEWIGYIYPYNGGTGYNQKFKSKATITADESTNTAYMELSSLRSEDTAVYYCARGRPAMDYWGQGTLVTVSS VL: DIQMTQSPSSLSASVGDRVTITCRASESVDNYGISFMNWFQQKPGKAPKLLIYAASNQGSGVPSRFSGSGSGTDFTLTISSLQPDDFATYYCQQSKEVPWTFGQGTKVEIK in your reply. 106
